Data origin: patent US9423396B2

Test: Spectroscopic measurements (absorption, emission, quantum yield, extinction coefficient)
Type: physicochemical
Details: BDNCA library, absorption
OUTCOME_MEASURE: Abs (nm)

>>> quantitative_result("CC1=CC(/C=C/c2ccc(Oc3ccccc3)cc2)=[N+]2C1=C(c1ccc(NC(=O)CCl)cc1)c1cccn1[B-]2(F)F [BDNCA-101]")
562
>>> quantitative_result("CC1=CC(/C=C/c2ccoc2)=[N+]2C1=C(c1ccc(NC(=O)CCl)cc1)c1cccn1[B-]2(F)F [BDNCA-71]")
550
>>> quantitative_result("CC1=CC(/C=C/c2ccc(-c3ccccc3)s2)=[N+]2C1=C(c1ccc(NC(=O)CCl)cc1)c1cccn1[B-]2(F)F [BDNCA-65]")
593
>>> quantitative_result("COc1ccc2c(OC)ccc(/C=C/C3=[N+]4C(=C(c5ccc(NC(=O)CCl)cc5)c5cccn5[B-]4(F)F)C(C)=C3)c2c1 [BDNCA-70]")
587
>>> quantitative_result("COc1cc(/C=C/C2=[N+]3C(=C(c4ccc(NC(=O)CCl)cc4)c4cccn4[B-]3(F)F)C(C)=C2)cc(I)c1OC [BDNCA-242]")
561
>>> quantitative_result("CC1=CC(/C=C/c2cccc(Oc3ccccc3)c2)=[N+]2C1=C(c1ccc(NC(=O)CCl)cc1)c1cccn1[B-]2(F)F [BDNCA-20]")
556
>>> quantitative_result("CCCCc1ccc(/C=C/C2=[N+]3C(=C(c4ccc(NC(=O)CCl)cc4)c4cccn4[B-]3(F)F)C(C)=C2)cc1 [BDNCA-263]")
559
>>> quantitative_result("COc1ccc(/C=C/C2=[N+]3C(=C(c4ccc(NC(=O)CCl)cc4)c4cccn4[B-]3(F)F)C(C)=C2)cc1OC [BDNCA-62]")
570
>>> quantitative_result("Cc1cc(/C=C/c2ccc(-c3ccccc3)cc2)n2c1C(c1ccc(NC(=O)CCl)cc1)=C1C=CC=[N+]1[B-]2(F)F [BDNCA-5]")
566
>>> quantitative_result("CC1=CC(/C=C/c2c(C)cccc2Cl)=[N+]2C1=C(c1ccc(NC(=O)CCl)cc1)c1cccn1[B-]2(F)F [BDNCA-285]")
544
>>> quantitative_result("Cc1ccc(/C=C/c2cc(C)c3n2[B-](F)(F)[N+]2=CC=CC2=C3c2ccc(NC(=O)CCl)cc2)cc1[N+](=O)[O-] [BDNCA-255]")
556
>>> quantitative_result("COc1c(Br)cc(Br)cc1/C=C/C1=[N+]2C(=C(c3ccc(NC(=O)CCl)cc3)c3cccn3[B-]2(F)F)C(C)=C1 [BDNCA-241]")
558
>>> quantitative_result("Cc1cc(/C=C/c2ccc(N(C)CCO)cc2)n2c1C(c1ccc(NC(=O)CCl)cc1)=C1C=CC=[N+]1[B-]2(F)F [BDNCA-91]")
559
>>> quantitative_result("COc1ccccc1/C=C/c1cc(C)c2n1[B-](F)(F)[N+]1=CC=CC1=C2c1ccc(NC(=O)CCl)cc1 [BDNCA-198]")
561
